Source of measurements: the supplement of paper PMC13380429

- Tested on: Vero E6 infected with SARS-CoV-2
- Test Description: inhibition of SARS-CoV-2 cytopathic effect; higher = more antiviral protection, active = above 15
- Run Conditions: 8.33 nM; 48 h
A correct response names exactly one class from active, inactive

For orientation, consider the following solved cases.
CCC[C@@H]1CC2=CC(=O)CC[C@]2(C)[C@H]2CC[C@@]3(C)[C@@H](CC[C@@]3(O)CCC(=O)O)[C@H]12: active
CC1(C)[C@H]2CC[C@]1(C)[C@@H](O)[C@H]2O [cis-exo-camphanediol-2,3]: inactive
CNC(=O)CN1CCC(Oc2cc3c(Nc4cccc(Cl)c4F)ncnc3cc2OC)CC1: inactive
N=C(N)c1ccc(/N=N/Nc2ccc(C(=N)N)cc2)cc1 [diminazene-aceturate]: inactive
N[C@@H](CSS(=O)(=O)O)C(=O)O: inactive

Ask | What did this assay record as the result for "CCOC(=O)c1ncn2c1CN(C)C(=O)c1cc(F)ccc1-2" ?
Reply | inactive

Ask | What did this assay record as the result for "C#CCN(C)[C@H](C)Cc1ccccc1" ?
Reply | inactive
